# System: Lolium
# method.summary: Pre-emergence test
# Type: in vivo
# assay.conditions: 125 g ai/ha, after three weeks
Field: % damage Lolium. Provide a value for each of the compounds that follow.
Respond with the bare value in %.

Look at this compound and give its reported % damage Lolium. CCc1cc(C)cc(C)c1-c1c(O)c(C)c(-c2ccc(F)cc2)oc1=O
100

Let us now turn to CCc1cc(C)c(C2=C(O)C3(CCC(OC)CC3)NC2=O)c(CC)c1 (stereo not drawn)
100

Let us now turn to C#Cc1cc(C)c(C2=C(OC(=O)OCC)C3(CCC(OC)CC3)NC2=O)c(C)c1 (stereo not drawn)
100

Let us now turn to CCc1cc(C)cc(C)c1C1=C(O)C2(CCC(OC)CC2)OC1=O (stereo not drawn)
100

Let us now turn to CCc1cc(C)cc(C)c1C1=C(O)C2(CCC(C)CC2)NC1=O (stereo not drawn)
100

Let us now turn to C#Cc1cc(C)c(C2=C(O)C3(CCC(OC)CC3)NC2=O)c(C)c1 (stereo not drawn)
100
